Give measured CL/F for each item. Keep answers brief.
# METHOD: Clearance in Sprague-Dawley rat at 10 mg/kg, po
# Assay type: ADME, organism-based
# Design: dose 10 mg/kg, route oral
# CONDITION SET: in vivo
One number for each entry, in mL/min/kg.

>  <CPD SMILES>
Cl.O=c1c2c3n(c(=O)cc2[nH]n1-c1ccccc1Cl)CCCN(Cc1ccccn1)C3

>  <CL/F / mL/min/kg>
17

$$$$

Please fill in: CL/F reported for Cl.O=c1c2c3n(c(=O)cc2[nH]n1-c1ccccc1Cl)CCCN(Cc1ccccc1)C3 = 4.33

====

# METHOD: Clearance in Sprague-Dawley rat at 5 mg/kg, iv
# Assay type: ADME, organism-based
# Set-up: dose 5 mg/kg, route intravenous
# CONDITION SET: in vivo
Give measured clearance for each item. Keep answers brief.
# output: number + unit

>  <CPD SMILES>
Cl.O=c1c2c3n(c(=O)cc2[nH]n1-c1ccccc1Cl)CCCN(Cc1ccccn1)C3

>  <clearance>
7.67 mL/min/kg

$$$$

Please examine the following record next.
Please fill in: clearance reported for Cl.O=c1c2c3n(c(=O)cc2[nH]n1-c1ccccc1Cl)CCCN(Cc1ccccc1)C3 = 2.17 mL/min/kg

====

# ASSAYED TARGET: hERG (Homo sapiens)
# Sequence (Q12809 whole entry): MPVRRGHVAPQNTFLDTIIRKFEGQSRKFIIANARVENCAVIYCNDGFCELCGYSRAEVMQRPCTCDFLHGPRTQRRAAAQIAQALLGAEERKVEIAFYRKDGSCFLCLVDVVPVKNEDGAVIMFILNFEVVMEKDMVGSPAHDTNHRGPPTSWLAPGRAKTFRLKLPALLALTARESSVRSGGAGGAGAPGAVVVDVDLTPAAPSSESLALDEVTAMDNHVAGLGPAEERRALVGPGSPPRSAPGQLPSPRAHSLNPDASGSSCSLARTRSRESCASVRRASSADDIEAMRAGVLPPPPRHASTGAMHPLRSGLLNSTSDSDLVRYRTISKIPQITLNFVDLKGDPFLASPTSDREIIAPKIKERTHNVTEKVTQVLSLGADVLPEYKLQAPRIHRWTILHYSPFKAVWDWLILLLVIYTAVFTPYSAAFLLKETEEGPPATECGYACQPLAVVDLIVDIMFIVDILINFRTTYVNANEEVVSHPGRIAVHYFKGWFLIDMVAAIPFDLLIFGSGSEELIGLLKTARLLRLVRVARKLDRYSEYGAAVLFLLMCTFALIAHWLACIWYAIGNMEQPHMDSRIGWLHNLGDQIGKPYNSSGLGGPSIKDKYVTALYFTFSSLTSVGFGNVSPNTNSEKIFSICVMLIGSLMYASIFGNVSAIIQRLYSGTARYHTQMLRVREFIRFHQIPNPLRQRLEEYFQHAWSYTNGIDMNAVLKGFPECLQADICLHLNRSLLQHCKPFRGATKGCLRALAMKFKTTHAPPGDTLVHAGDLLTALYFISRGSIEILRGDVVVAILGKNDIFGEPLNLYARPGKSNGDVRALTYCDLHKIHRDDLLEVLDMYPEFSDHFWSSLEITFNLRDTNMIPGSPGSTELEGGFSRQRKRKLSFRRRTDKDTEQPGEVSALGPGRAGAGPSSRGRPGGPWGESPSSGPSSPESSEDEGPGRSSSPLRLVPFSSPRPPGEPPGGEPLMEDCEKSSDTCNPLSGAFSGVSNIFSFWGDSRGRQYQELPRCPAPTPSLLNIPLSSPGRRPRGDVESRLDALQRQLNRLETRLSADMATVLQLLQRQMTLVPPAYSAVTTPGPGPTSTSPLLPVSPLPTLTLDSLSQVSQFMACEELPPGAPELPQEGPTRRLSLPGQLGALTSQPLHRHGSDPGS
# METHOD: Inhibition of hERG at 1 uM by patch clamp assay
# Assay type: toxicity
TEST READOUT: inhibition at 1 µM

Please fill in: inhibition at 1 µM reported for Cl.O=c1c2c3n(c(=O)cc2[nH]n1-c1ccccc1Cl)CCCN(Cc1ccccc1)C3 = 8.7%

====

# ASSAYED TARGET: NADPH oxidase 2 (Homo sapiens, UniProt P04839)
# Sequence (P04839 whole entry): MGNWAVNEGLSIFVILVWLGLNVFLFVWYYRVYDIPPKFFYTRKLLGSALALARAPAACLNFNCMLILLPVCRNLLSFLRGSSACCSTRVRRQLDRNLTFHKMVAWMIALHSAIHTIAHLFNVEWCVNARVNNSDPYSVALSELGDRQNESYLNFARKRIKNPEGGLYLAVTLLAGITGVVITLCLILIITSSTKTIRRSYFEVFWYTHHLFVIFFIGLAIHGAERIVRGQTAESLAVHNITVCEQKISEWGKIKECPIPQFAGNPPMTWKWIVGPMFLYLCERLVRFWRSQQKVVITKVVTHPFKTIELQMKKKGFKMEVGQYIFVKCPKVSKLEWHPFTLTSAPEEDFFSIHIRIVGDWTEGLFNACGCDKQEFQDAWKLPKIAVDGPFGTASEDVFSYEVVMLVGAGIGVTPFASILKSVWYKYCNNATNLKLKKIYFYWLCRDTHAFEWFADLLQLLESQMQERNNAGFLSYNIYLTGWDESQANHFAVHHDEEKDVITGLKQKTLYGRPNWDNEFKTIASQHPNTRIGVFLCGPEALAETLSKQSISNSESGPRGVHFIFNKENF
# METHOD: Antagonist activity at human NOX2 in human polymorphonuclear cell membrane assessed as inhibition of ROS production after 20 mins by cell-free amplex red assay
TEST READOUT: Ki

>  <CPD SMILES>
COc1cccc(CN2CCCn3c(c4c(=O)n(-c5ccccc5OC)[nH]c4cc3=O)C2)c1

>  <ASSAYED TARGET>
NADPH oxidase 2 (Homo sapiens, UniProt P04839)

>  <RESULT>
820 nM

$$$$

// batch mode: one Ki value per listed entry
1. COc1ccccc1-n1[nH]c2cc(=O)n3c(c2c1=O)CN(Cc1ccccn1)CCC3.Cl
2. Cl.O=c1c2c3n(c(=O)cc2[nH]n1-c1ccccc1Cl)CCCN(Cc1cccnc1)C3
3. Cl.O=c1c2c3n(c(=O)cc2[nH]n1-c1ccccc1Cl)CCCN(Cc1ccccc1)C3
4. COc1cccc(CN2CCCn3c(c4c(=O)n(-c5ccccc5Cl)[nH]c4cc3=O)C2)c1.Cl
5. COc1ccccc1CN1CCCn2c(c3c(=O)n(-c4ccccc4Cl)[nH]c3cc2=O)C1
6. O=c1c2c3n(c(=O)cc2[nH]n1-c1ccccc1Cl)CCOC3

Result:
510 nM
1370 nM
1340 nM
1200 nM
1760 nM
433 nM

// batch mode: one Ki value per listed entry
1. O=c1c2c3n(c(=O)cc2[nH]n1-c1ccccc1Cl)CCCN(Cc1ccoc1)C3
2. O=c1c2c3n(c(=O)cc2[nH]n1-c1ccccc1Cl)CCCN(Cc1ccccc1Cl)C3

Result:
["1020 nM", "1160 nM"]

====

# ASSAYED TARGET: NADPH oxidase 5 (Homo sapiens)
# METHOD: Antagonist activity at human NOX5 assessed as inhibition of ROS production after 20 mins by cell-free amplex red assay
# Type: functional
With a cut-off of 600 nM, any Ki strictly below it is called TRUE; any Ki meeting it or above is called FALSE.

Request: Item COc1ccccc1CN1CCCn2c(c3c(=O)n(-c4ccccc4Cl)[nH]c3cc2=O)C1 : Ki beneath 600 nM, strictly?
Result: FALSE

Request: Item COc1cccc(CN2CCCn3c(c4c(=O)n(-c5ccccc5OC)[nH]c4cc3=O)C2)c1 : Ki beneath 600 nM, strictly?
Result: FALSE

====

# ASSAYED TARGET: UniProtKB P11712
# Sequence (P11712 whole entry): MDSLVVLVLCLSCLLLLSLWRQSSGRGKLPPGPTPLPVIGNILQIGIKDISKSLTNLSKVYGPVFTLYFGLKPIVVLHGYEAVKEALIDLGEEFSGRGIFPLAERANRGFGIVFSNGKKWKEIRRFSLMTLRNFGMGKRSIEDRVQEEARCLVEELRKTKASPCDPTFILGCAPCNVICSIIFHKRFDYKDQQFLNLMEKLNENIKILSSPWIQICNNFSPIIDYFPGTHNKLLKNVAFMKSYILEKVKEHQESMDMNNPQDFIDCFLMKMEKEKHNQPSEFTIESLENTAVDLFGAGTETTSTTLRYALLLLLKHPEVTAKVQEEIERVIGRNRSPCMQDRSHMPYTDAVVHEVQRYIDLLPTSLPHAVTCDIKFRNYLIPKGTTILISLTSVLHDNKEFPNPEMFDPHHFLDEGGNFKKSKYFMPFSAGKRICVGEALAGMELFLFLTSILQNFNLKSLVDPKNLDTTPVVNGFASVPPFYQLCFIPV
# METHOD: Inhibition of human recombinant CYP2C9 by mass spectrophotometry
TEST READOUT: IC50

Item: Cl.O=c1c2c3n(c(=O)cc2[nH]n1-c1ccccc1Cl)CCCN(Cc1ccccc1)C3 | System: UniProtKB P11712 | IC50: > 25 µM

====

# ASSAYED TARGET: NADPH oxidase 5 (Homo sapiens, UniProt Q96PH1)
# Sequence (Q96PH1 whole entry): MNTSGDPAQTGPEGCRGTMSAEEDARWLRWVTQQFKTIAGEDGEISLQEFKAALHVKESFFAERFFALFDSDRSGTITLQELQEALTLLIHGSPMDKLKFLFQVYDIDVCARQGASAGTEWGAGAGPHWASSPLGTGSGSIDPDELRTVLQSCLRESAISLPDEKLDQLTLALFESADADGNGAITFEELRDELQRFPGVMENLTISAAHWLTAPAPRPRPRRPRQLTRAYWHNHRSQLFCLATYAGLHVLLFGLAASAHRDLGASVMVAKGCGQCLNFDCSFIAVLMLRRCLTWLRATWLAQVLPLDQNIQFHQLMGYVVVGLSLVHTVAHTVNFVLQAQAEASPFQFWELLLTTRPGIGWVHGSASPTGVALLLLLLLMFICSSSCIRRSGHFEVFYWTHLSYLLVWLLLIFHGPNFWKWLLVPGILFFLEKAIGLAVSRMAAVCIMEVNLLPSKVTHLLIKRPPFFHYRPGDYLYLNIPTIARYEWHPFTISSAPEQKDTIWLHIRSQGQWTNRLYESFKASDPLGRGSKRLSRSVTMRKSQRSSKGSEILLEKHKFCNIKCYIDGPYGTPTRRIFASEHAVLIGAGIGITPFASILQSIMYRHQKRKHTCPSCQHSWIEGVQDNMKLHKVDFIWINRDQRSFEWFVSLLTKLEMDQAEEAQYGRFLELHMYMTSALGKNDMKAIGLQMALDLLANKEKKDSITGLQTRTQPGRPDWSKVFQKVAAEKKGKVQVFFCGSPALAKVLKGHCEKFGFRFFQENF
# METHOD: Antagonist activity at human NOX5 assessed as inhibition of ROS production after 20 mins by cell-free amplex red assay
With a cut-off of 600 nM, any Ki strictly below it is called y; any Ki meeting it or above is called n.

These recorded examples may help you get a feel for the data.
>  <CPD SMILES>
Cl.O=c1c2c3n(c(=O)cc2[nH]n1-c1ccccc1Cl)CCCN(Cc1ccccn1)C3

>  <DISCRETE LABEL>
y

$$$$
>  <CPD SMILES>
O=c1c2c3n(c(=O)cc2[nH]n1-c1ccccc1Cl)CCN(Cc1ccccc1)C3

>  <DISCRETE LABEL>
n

$$$$
>  <CPD SMILES>
O=c1c2c3n(c(=O)cc2[nH]n1-c1ccccc1Cl)CCCN(Cc1ccoc1)C3

>  <DISCRETE LABEL>
n

$$$$

Request: Item Cl.O=c1c2c3n(c(=O)cc2[nH]n1-c1ccccc1Cl)CCCN(Cc1cccnc1)C3 : Ki beneath 600 nM, strictly?
Result: n

Request: Item O=c1c2c3n(c(=O)cc2[nH]n1-c1ccccc1Cl)CCCN(Cc1cccc(Cl)c1)C3 : Ki beneath 600 nM, strictly?
Result: y

Request: Item O=c1c2c3n(c(=O)cc2[nH]n1-c1ccccc1Cl)CCCNC3 : Ki beneath 600 nM, strictly?
Result: y

Request: Item COc1cccc(CN2CCCn3c(c4c(=O)n(-c5ccccc5Cl)[nH]c4cc3=O)C2)c1.Cl : Ki beneath 600 nM, strictly?
Result: n

Request: Item Cl.O=c1c2c3n(c(=O)cc2[nH]n1-c1ccccc1Cl)CCCN(Cc1ccccc1)C3 : Ki beneath 600 nM, strictly?
Result: y

====

Give measured Ki for each item. Keep answers brief.
# ASSAYED TARGET: NADPH oxidase 5 (Homo sapiens)
# METHOD: Antagonist activity at human NOX5 assessed as inhibition of ROS production after 20 mins by cell-free amplex red assay

>  <CPD SMILES>
O=c1c2c3n(c(=O)cc2[nH]n1-c1ccccc1Cl)CCCN(Cc1ccc(Cl)cc1)C3

>  <Ki>
585 nM

$$$$

// batch mode: one Ki value per listed entry
1. COc1ccccc1-n1[nH]c2cc(=O)n3c(c2c1=O)CN(Cc1ccccn1)CCC3.Cl
2. O=c1c2c3n(c(=O)cc2[nH]n1-c1ccccc1Cl)CCOC3
3. COc1ccccc1-n1[nH]c2cc(=O)n3c(c2c1=O)CN(Cc1ccccc1)CCC3
4. CC(C)(C)OC(=O)N1CCCn2c(c3c(=O)n(-c4ccccc4Cl)[nH]c3cc2=O)C1
5. COc1ccc(CN2CCCn3c(c4c(=O)n(-c5ccccc5Cl)[nH]c4cc3=O)C2)cc1
6. O=c1c2c3n(c(=O)cc2[nH]n1-c1ccccc1Cl)CCCN(Cc1ccccc1Cl)C3

Result:
1: 610 nM; 2: 490 nM; 3: 670 nM; 4: 590 nM; 5: 690 nM; 6: 615 nM
